# Assayed System: Ubiquitin carboxyl-terminal hydrolase 17-like protein 5 (Homo sapiens)
# Assay Summary: inhibitors of human USP17 deubiquitinase (AID 1645855)
# Measurement Conditions: purified USP17, Ub-rhodamine cleavage fluorescence, 3 h; at 50 µM; hits give high values
Among all 47,000 compounds or so, about 3,100 (6.6%) were called active. The entries come from a sample that favours actives as a whole.
What inhibition was measured for each of the following?

Consider the reported inhibition for these molecules:
Cc1ccccc1NS(=O)(=O)c1cc2c(cc1Cl)NC(=O)CO2 = 11.5% (inactive)
COc1cccc(C(=O)N2CCC(c3nc4ccncc4n3C)C2)c1 (stereo unspecified) = 10% (inactive)
CC(C)NC(=O)[C@H](C)NC(=O)N1CCn2c1nc1ccccc12 = -12.1% (inactive)

Okay, here is my list. What is inhibition for each of these?
1. COc1ccc(-c2cnc(SCCNC(=O)c3cccc(F)c3)[nH]2)cc1
2. O=C(Nc1cccnc1Cl)c1noc2c1COc1ccccc1-2
3. COc1ccc(C(=O)N2CC(=O)N(Cc3ccccc3)CC(O)C2)cc1 (stereo unspecified)

// result
-3.6% (inactive)
15% (inactive)
-3.64% (inactive)

###

# Assayed System: Ubiquitin carboxyl-terminal hydrolase 17-like protein 5 (Homo sapiens)
# Assay Summary: inhibitors of human USP17 deubiquitinase (AID 1645855)
# Measurement Conditions: purified USP17, Ub-rhodamine cleavage fluorescence, 3 h; at 50 µM; hits give high values
The campaign covered roughly 47,000 compounds. About 3,100 (6.6%) were called active. The sample as a whole holds a higher share of actives than the screen did.
Provide the recorded inhibition for the entries that follow.
One number for each entry, in %.

C\C=C(/C=C(C)/C=C(C)/C=C/C=C(\C)C(=O)[C@]12O[C@H]1[C@@](O)(CCO)NC2=O)C(=O)OC = -48.6
CC1(C)Cc2c(c(-c3ccco3)nc3sc4c(SCCCc5ccccc5)ncnc4c23)CO1 = 69.7
O=C(Cn1c(=O)n(Cc2ccc3c(c2)OCO3)c(=O)c2cccnc21)Nc1ccc(F)cc1 = 14.6

Batch request: inhibition for each of the following molecules.
1. COc1ccccc1C(=O)Nc1cccn2nc(C3CCC3)nc12
2. COc1cc2c(cc1OC)CN(C(=O)c1cc(=O)c3ccccc3o1)CC2
3. Cc1ccc(S(=O)(=O)CC(=O)Nc2sc(C)c(C)c2C(N)=O)cc1
4. CN1CCN(c2ncc3c(=O)n(Cc4ccccn4)ccc3n2)CC1
5. CSc1ncnc2c1sc1nc(-c3ccccc3)c3c(c12)CC(C)(C)OC3
6. Cc1c(-c2nn3c(-c4ccco4)nnc3s2)cccc1[N+](=O)[O-]
7. COc1ccc(CC(=O)Nc2ccc3c(c2)CN(C(=O)c2ccco2)CC3)cc1

// result
1: 2.42; 2: 8.62; 3: -27.2; 4: 11.4; 5: 3.2; 6: 67.4; 7: 46.1

###

# Assayed System: Ubiquitin carboxyl-terminal hydrolase 17-like protein 5 (Homo sapiens)
# Assay Summary: inhibitors of human USP17 deubiquitinase (AID 1645855)
# Measurement Conditions: purified USP17, Ub-rhodamine cleavage fluorescence, 3 h; at 50 µM
Hit rate of the full screen: of about 47,000 compounds, about 3,100 (6.6%) were called active. No stated cut-off is given here; in the data, active means inhibition above about 30%; inactive means the rest. This is one part of a sample in which actives are shown more often than they occur.
Log the outcome using a class from t (active), f (inactive)

Use these answered entries as a reference point.
CC(C)C(=O)Oc1cn(CCCN2CCCC2=O)c2nc(C(C)C)n3c4ccccc4nc3c12 = f
Cc1c(Cl)c([N+](=O)[O-])nn1CCCC(=O)NC(C)c1ccccc1 (configuration not stated) = f
Cc1ccc(CNC(=O)c2ccc(-c3cccnc3)nc2)cc1 = f
N#Cc1ccccc1OCC(=O)Nc1ccc(-c2cn3ccsc3n2)cc1 = t
CCC(C)Cc1ccc2c(c1O)C(=O)OC(CC(\C=C/C=C\C=C\c1coc(CC(O)C(C)C(O)CC)n1)OC)C2 (configuration not stated) = f
Cc1cc(F)ccc1NC(=O)Cc1n[nH]c(Cc2ccccc2)n1 = f
c1cc(CNCc2ccc3c(c2)OCO3)ccn1 = f
CCC(Oc1ccccc1)C(=O)NCc1ccc2c(c1)OCO2 (configuration not stated) = f
CCc1nnc(NC(=O)c2cc(-c3ccc(C)c(C)c3O)n[nH]2)s1 = f
O=S(=O)(NCc1nc2cccnc2n1C1CC1)c1ccccc1F = f

// query Kindly provide the recorded test outcome for the following compound: Cc1nn(-c2ccc(F)cc2F)c2c1C(C(=O)c1cc3ccccc3o1)CC(=O)N2 (configuration not stated)
// result t

// query Called result for CC1=C(c2ccc(F)cc2)S(=O)(=O)N=C1Nc1ccccc1Cl
// result f

// query Please share the test call associated with COc1ccc(CCNC(=O)CSc2cn(CCNC(=O)c3ccccc3C)c3ccccc23)cc1OC .
// result f

// query Assay result, entry O=C1CN(C(=O)c2cccc3ccccc23)C(c2ccc(F)cc2)c2cc(Br)ccc2N1 (configuration not stated) — outcome?
// result f

// query What did the test return for CCN1CCN(C2=Nc3c(Cl)cc(Cl)c4cccc2c34)CC1 ?
// result f

// query Record lookup: outcome of this test for CNS(=O)(=O)c1ccc(CNC(=O)c2cc(-c3ccc(C)cc3)no2)cc1 ?
// result t

// query Any idea what this test logged for O=S(=O)(Cc1ccccc1)N1CC2(CCN(CC3CCCC3)CC2)C1 ?
// result f

// query What was the test verdict on O=C(CNc1ccc(OC2CCCC2)cc1)N1CCNC1=O ?
// result f

// query Please share the test call associated with CNC(=O)[C@@]12CCC3(CCN(C(=O)c4cc(C)on4)CC3)[C@@H]1CN(C)C2 .
// result f
